# SYSTEM NAME: MMP-9 catalytic domain (UniProt P14780)
# Sequence (P14780 whole entry, the tested form may be a part): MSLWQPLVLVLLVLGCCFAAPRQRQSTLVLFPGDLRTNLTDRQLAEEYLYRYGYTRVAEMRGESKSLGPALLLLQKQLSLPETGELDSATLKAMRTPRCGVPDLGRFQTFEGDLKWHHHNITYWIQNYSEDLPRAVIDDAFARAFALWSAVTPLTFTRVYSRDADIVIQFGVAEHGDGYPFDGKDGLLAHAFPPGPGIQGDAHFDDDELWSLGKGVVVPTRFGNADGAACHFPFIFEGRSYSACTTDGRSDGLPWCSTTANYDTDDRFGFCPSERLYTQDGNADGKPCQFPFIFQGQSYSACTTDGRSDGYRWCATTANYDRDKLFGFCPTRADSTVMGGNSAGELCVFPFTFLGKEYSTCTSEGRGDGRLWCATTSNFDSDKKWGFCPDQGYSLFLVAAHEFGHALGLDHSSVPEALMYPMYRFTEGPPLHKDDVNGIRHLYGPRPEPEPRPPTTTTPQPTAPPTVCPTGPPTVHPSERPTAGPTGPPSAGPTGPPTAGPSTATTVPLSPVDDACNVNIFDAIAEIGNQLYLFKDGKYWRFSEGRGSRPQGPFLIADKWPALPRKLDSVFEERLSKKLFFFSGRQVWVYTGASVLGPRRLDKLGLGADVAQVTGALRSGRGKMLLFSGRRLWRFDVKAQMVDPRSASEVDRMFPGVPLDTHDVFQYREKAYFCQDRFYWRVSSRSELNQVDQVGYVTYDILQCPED
# ASSAY SUMMARY: kcat/KM (M-1 s-1); higher = more efficient cleavage by the protease
PARAMETER: kcat/KM

Please review the following examples before continuing.
[[record]]
substance = "QQPQAL"
quantitative_result = 70100

[[record]]
substance = "VEPLKF"
quantitative_result = 48900

[[record]]
substance = "NPMPIR"
quantitative_result = 21200

[[record]]
substance = "PQPEGL"
quantitative_result = 48400

[[record]]
substance = "IPLASL"
quantitative_result = 3730


I: KPVNMT
II: EPKPLL
Select the item with the higher value of kcat/KM from the options I and II listed. Your answer should be the label of the entry you select. I
(I: 84500, II: 18900)

====

# SYSTEM NAME: MMP-9 catalytic domain (UniProt P14780)
# ASSAY SUMMARY: kcat/KM (M-1 s-1); higher = more efficient cleavage by the protease
PARAMETER: kcat/KM

P: PYEWHS
Q: RMMREL
Of P and Q , which carries the smaller reported kcat/KM figure? Reply with the label of the item you choose. Q
(Q: 9020, P: 26000)

====

# SYSTEM NAME: MMP-2 catalytic domain (UniProt P08253)
# Sequence (P08253 whole entry, looked up, the tested form may be a part): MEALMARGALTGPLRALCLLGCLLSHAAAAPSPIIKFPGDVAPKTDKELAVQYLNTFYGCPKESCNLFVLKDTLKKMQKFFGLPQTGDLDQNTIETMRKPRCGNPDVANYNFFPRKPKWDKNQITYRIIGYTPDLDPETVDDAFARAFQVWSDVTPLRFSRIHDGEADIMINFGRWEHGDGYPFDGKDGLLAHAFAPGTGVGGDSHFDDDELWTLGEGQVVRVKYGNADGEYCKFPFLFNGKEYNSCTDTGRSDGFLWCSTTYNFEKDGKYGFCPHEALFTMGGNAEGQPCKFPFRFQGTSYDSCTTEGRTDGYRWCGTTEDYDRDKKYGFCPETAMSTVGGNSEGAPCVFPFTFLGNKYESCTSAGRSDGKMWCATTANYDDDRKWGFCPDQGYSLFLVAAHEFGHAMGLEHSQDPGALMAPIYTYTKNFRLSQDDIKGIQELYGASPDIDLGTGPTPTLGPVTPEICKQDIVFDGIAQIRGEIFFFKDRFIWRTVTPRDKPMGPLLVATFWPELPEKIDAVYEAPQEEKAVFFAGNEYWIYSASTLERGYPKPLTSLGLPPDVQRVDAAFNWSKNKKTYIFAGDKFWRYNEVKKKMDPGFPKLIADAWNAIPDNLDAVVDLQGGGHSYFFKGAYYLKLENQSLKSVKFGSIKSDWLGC
# ASSAY SUMMARY: kcat/KM (M-1 s-1); higher = more efficient cleavage by the protease
PARAMETER: kcat/KM

[[record]]
substance = "PRGVKG"
system_name = "MMP-2 catalytic domain (UniProt P08253)"
quantitative_result = 58000


P: SRPAEF
Q: QSPINL
Endpoint returns whichever of P and Q has the numerically higher kcat/KM. Bench note: the answer is the label of the chosen record. P
(P: 98800, Q: 31000)

====

# SYSTEM NAME: MMP-9 catalytic domain (UniProt P14780)
# ASSAY SUMMARY: kcat/KM (M-1 s-1); higher = more efficient cleavage by the protease
PARAMETER: kcat/KM

[[record]]
substance = "PVNMTD"
parameter = "kcat/KM"
quantitative_result = 9420

[[record]]
substance = "QPPLPL"
parameter = "kcat/KM"
quantitative_result = 18700

[[record]]
substance = "DRKPKA"
parameter = "kcat/KM"
quantitative_result = 0

[[record]]
substance = "GEPRGQ"
parameter = "kcat/KM"
quantitative_result = 52200

[[record]]
substance = "PHNILS"
parameter = "kcat/KM"
quantitative_result = 51700

[[record]]
substance = "HPVSMV"
parameter = "kcat/KM"
quantitative_result = 8720

[[record]]
substance = "VPQEWR"
parameter = "kcat/KM"
quantitative_result = 16200

[[record]]
substance = "PEPAAL"
parameter = "kcat/KM"
quantitative_result = 89400


1: EGPAGL
2: VHPSAV
Which value of kcat/KM is smaller, the one for 1 or the one for 2 ? Label of pick, please. 2

A: INPQGL
B: PRGFSH
Of the pair A and B , name the member with the lesser recorded kcat/KM. Write down the label attached to your selection. B
(B: 896, A: 74100)

I: TPAAMT
II: PQGLAG
III: PKGYQG
IV: PHGLAT
# ascending order, key=kcat/KM Submit the labels in the order that the ranking request calls for. IV, I, II, III

P: ARHYKS
Q: PYGIKG
Input pair: P , Q . Output: entry with lower kcat/KM. Answer by stating the label of the chosen item. P

P: EVPQAL
Q: PRGVKG
R: GEPFEL
S: DGPVSF
T: GPEGMK
Your job: order these 5 records by kcat/KM, ascending. Output spec: a listing of the labels in the requested order. T, S, R, P, Q
(T: 3600, S: 9530, R: 15500, P: 43200, Q: 62100)

a: QSPINL
b: PKALPY
c: PRPQAA
d: SAAQPL
Order the 4 substances from highest to lowest kcat/KM. Would you mind listing the labels in the order asked for? a, b, c, d

a: GPRGLK
b: PLRQIG
c: GPHGYK
d: TQPKAM
e: EPVSLA
# ascending order, key=kcat/KM # answer = labels listed in requested order e, c, b, a, d
(e: 2680, c: 22100, b: 33200, a: 71000, d: 106000)

1: MGPLGQ
2: GPAGIR
3: GPARPY
Kindly order the items shown according to kcat/KM, from the highest value down. Please list the labels in the order you were asked to rank them. 1, 2, 3

====

# SYSTEM NAME: MMP-9 catalytic domain (UniProt P14780)
# ASSAY SUMMARY: kcat/KM (M-1 s-1); higher = more efficient cleavage by the protease
PARAMETER: kcat/KM

[[record]]
substance = "GKPVSM"
parameter = "kcat/KM"
quantitative_result = 43700

[[record]]
substance = "PAQLHV"
parameter = "kcat/KM"
quantitative_result = 7420

[[record]]
substance = "PTPKAL"
parameter = "kcat/KM"
quantitative_result = 69100

[[record]]
substance = "KSPQSY"
parameter = "kcat/KM"
quantitative_result = 66100

[[record]]
substance = "PGPIGI"
parameter = "kcat/KM"
quantitative_result = 38500


a: PHPRLL
b: DSPQNL
Recorded kcat/KM values differ for a and b ; which one is higher? Record your answer as the label of the chosen record. a
(a: 75300, b: 37200)

1: PRPFHH
2: RPEDLR
3: KSPSRL
Rank the 3 substances: largest kcat/KM first, smallest last. Put the labels in the requested order and list them out. 3, 1, 2

====

# SYSTEM NAME: MMP-9 catalytic domain (UniProt P14780)
# ASSAY SUMMARY: kcat/KM (M-1 s-1); higher = more efficient cleavage by the protease
PARAMETER: kcat/KM

Solved cases (5 shown):
[[record]]
substance = "PMDIHA"
quantitative_result = 46000

[[record]]
substance = "TAPSSQ"
quantitative_result = 45100

[[record]]
substance = "SPPAAI"
quantitative_result = 64400

[[record]]
substance = "PVGMKG"
quantitative_result = 64000

[[record]]
substance = "TTPSPI"
quantitative_result = 41000


a: NPQNIR
b: MSPANI
For the pair a and b , which entry has the numerically smaller recorded kcat/KM? Write the label of whichever entry you select. a

====

# SYSTEM NAME: MMP-9 catalytic domain (UniProt P14780)
# ASSAY SUMMARY: kcat/KM (M-1 s-1); higher = more efficient cleavage by the protease
PARAMETER: kcat/KM

Example results:
[[record]]
substance = "VSALSS"
quantitative_result = 7040

[[record]]
substance = "NRPNNL"
quantitative_result = 46200

[[record]]
substance = "GPKGFR"
quantitative_result = 34000

[[record]]
substance = "RRPRPL"
quantitative_result = 38200

[[record]]
substance = "PLQLQT"
quantitative_result = 24900

[[record]]
substance = "PGPIGW"
quantitative_result = 28700

[[record]]
substance = "SIPLPL"
quantitative_result = 22400

[[record]]
substance = "PMALMD"
quantitative_result = 36900

[[record]]
substance = "WPSPFR"
quantitative_result = 11600

[[record]]
substance = "PGPAGQ"
quantitative_result = 59800


a: PEGLQG
b: QGPAAI
c: SPMAFS
d: KSPQAM
List the 4 entries from lowest kcat/KM to highest kcat/KM value. The labels, placed in the requested order, form the answer. c, a, b, d

1: PHGYKG
2: GPALSY
Please indicate which item has the smaller measured kcat/KM: 1 versus 2 To answer, give the label that identifies your chosen option. 2

P: KSPVGV
Q: PQPSEL
R: PIQLQS
S: NVARPM
T: ETPRPW
# ascending order, key=kcat/KM Please respond with the labels ordered as the question requires. T, R, P, S, Q
(T: 7950, R: 11900, P: 18400, S: 27000, Q: 45500)

A: PQPLDL
B: SRPAEF
Of A and B , which shows the smaller kcat/KM value? Give the label under which the chosen entry appears. B

====

# SYSTEM NAME: MMP-9 catalytic domain (UniProt P14780)
# ASSAY SUMMARY: kcat/KM (M-1 s-1); higher = more efficient cleavage by the protease
PARAMETER: kcat/KM

Some solved entries appear below for comparison.
[[record]]
substance = "PAGVKA"
parameter = "kcat/KM"
quantitative_result = 15200

[[record]]
substance = "GQPMNL"
parameter = "kcat/KM"
quantitative_result = 90600

[[record]]
substance = "LPKPLR"
parameter = "kcat/KM"
quantitative_result = 45900

[[record]]
substance = "PSPADI"
parameter = "kcat/KM"
quantitative_result = 18600

[[record]]
substance = "GPRYLM"
parameter = "kcat/KM"
quantitative_result = 37800

[[record]]
substance = "KSPLRQ"
parameter = "kcat/KM"
quantitative_result = 34600

[[record]]
substance = "PSNMEG"
parameter = "kcat/KM"
quantitative_result = 50100

[[record]]
substance = "APALWI"
parameter = "kcat/KM"
quantitative_result = 33400


I: PAPNSL
II: IRPKHF
III: AHNLSS
Descending sort on kcat/KM required. Arrange the labels as the request states and list them. II, I, III
(II: 97100, I: 49000, III: 9130)

1: QPLEIR
2: QQPSRL
Between 1 and 2 , whose recorded kcat/KM is greater? Output the label that corresponds to your choice. 2

P: LSPFGQ
Q: MRPVGH
I would appreciate it if you could say which entry, P or Q , has the lower kcat/KM value. To answer, give the label that identifies your chosen option. Q
